Cited source: PubChem BioAssay (NCI)

Test system: SF-268 CNS
Test: NCI-60 one-dose screen, 48 h
Settings: 10 µM unless noted
The panel holds about 83,000 compounds, 20% with a hit somewhere; the sample as a whole holds those more often. Calls of active or inactive are those of the source. Rule for the calls: active = growth percent below 10; inactive = the rest.
Tick one outcome: active, inactive

Solved entries:
compound=Nc1cc2c3c(cccc3c1)C(=O)N(CCN1CCCC1)C2=O assigned_category=inactive
compound=O=C1/C(=C/c2ccc(Br)cc2)C=C(c2ccccc2)N1CCc1ccccc1 assigned_category=inactive
compound="COc1ccc(/C=N/C2=C(C#N)C(c3ccc(OC)cc3)c3ccc4ccccc4c3O2)cc1 (stereo not given)" assigned_category=inactive
compound=O=C(NCCNc1cc(-c2cn(-c3ccccc3)nc2-c2cccc(O)c2)ccn1)Nc1ccccc1 assigned_category=inactive
compound=O=C(CSc1nnc(-c2ccc(NC(=O)c3cccnc3)cc2)o1)N[C@@H](Cc1ccc(O)cc1)C(=O)O assigned_category=inactive

Please let me know the test result on file for Cc1ccc2c(c1)Sc1c(ccc3ccccc13)N2 .
inactive

Please let me know the test result on file for Cc1ccc(/C=C/c2c(C(=O)/C=C/c3ccc(Cl)cc3)c(C)nc3ccccc23)cc1 .
inactive

Please let me know the test result on file for COc1cccc(-c2nc3sccn3c2-c2ccnc(NCCNS(=O)(=O)c3cccc(F)c3)c2)c1 .
inactive

Please let me know the test result on file for O=c1ssc(Cl)c1-c1ccccc1 .
inactive

Please let me know the test result on file for COc1ccc(C(=NN=C(N)N)c2ccc(OC)cc2)cc1 .
inactive

Please let me know the test result on file for C=CCn1c(C)nc2cc(Nc3nc(Cl)nc4ccccc34)ccc21 .
inactive

Please let me know the test result on file for COc1cc(C2CC(c3cc(OC)c(OCCCOc4ccc(-n5c(/C=C/c6ccccc6)nc6ccccc6c5=O)cc4)c(OC)c3)=NO2)cc(OC)c1OC (stereo not given) .
inactive

Please let me know the test result on file for O=[N+]([O-])c1ccc(OCCO)cc1 .
inactive

Please let me know the test result on file for COC(=O)[C@]12CC[C@@H](C)[C@H](C)[C@@H]1C1=CC[C@@H]3[C@@]4(C)C(C=O)=C[C@@](C)(COC(C)=O)C4=CC[C@@]3(C)[C@]1(C)CC2 .
active

Please let me know the test result on file for CCOC(=O)c1c(-c2ccc(Cl)cc2)c(C#N)c(=O)n(-c2ccccc2CC)c1N .
inactive

Please let me know the test result on file for Cc1cccc(Cc2cnc(NC(=O)c3ccc4nnsc4c3)s2)c1 .
inactive

Please let me know the test result on file for O=C(NC(CSSCC(NC(=O)c1ccccc1)C(=O)O)C(=O)O)c1ccccc1 (stereo not given) .
inactive

Please let me know the test result on file for N#CC1=C(c2ccc(Br)cc2)NC(SCC(=O)c2ccc(Br)cc2)NC1=O (stereo not given) .
inactive

Please let me know the test result on file for c1ccc(Nc2nc(-c3ccccn3)cs2)nc1 .
inactive

Please let me know the test result on file for CCN(CC)c1nc(SCC(=O)Nc2nc3ccc(C)cc3s2)nc(-c2ccccc2)c1C#N .
inactive
